The reported numbers originate from ChEMBL document CHEMBL5365529.

test system: Candida tropicalis; assay: Antifungal activity against Candida tropicalis ATCC 1369 assessed as fungal growth inhibition incubated for 72 hrs by CLSI based susceptibility test; assay type: functional
metricName: MIC50 (µg/mL)

1. COC(=O)[C@@H](Cn1cncn1)NC(=O)C1CCCN(C(=O)c2cccc(-c3ccccc3)c2)C1 (stereo not given in full) = 1
2. COC(=O)[C@@H](Cn1ccnc1)NC(=O)C1CCCN(Cc2cccc(-c3ccccc3)c2C)C1 (stereo not given in full) = 1
3. OC(Cn1cncn1)(Cn1cncn1)c1ccc(F)cc1F = 0.5
4. COC(=O)[C@@H](Cn1cncn1)NC(=O)C1CCCN(Cc2cccc(-c3ccccc3)c2C)C1 (stereo not given in full) = 1
5. COC(=O)[C@@H](Cn1cncn1)NCc1cccc(OCc2cccc(-c3ccccc3)c2C)c1 = 0.5
